target: PDE1C (Homo sapiens, UniProt Q14123)
Sequence (Q14123 whole entry): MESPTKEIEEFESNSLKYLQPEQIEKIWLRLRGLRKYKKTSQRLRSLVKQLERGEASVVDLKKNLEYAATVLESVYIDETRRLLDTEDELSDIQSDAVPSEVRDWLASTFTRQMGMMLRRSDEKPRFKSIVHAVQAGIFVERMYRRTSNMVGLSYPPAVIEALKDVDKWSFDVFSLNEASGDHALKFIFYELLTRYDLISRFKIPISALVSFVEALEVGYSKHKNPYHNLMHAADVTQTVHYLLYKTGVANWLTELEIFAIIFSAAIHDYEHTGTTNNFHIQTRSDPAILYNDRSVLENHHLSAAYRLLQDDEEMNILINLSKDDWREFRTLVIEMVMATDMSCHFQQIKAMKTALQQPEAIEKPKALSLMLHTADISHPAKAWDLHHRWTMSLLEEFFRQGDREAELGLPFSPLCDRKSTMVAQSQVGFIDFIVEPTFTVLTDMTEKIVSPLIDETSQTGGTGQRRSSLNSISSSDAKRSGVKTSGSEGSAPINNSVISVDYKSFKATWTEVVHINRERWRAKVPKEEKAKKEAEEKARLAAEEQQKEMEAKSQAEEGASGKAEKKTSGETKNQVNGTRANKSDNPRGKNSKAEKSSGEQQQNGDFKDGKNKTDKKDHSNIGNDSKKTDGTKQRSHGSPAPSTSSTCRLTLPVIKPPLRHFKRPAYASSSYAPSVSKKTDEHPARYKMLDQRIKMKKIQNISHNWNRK
pIC50: −log10 of the molar value.
Measured Parameter: pIC50

Check out these entries, answers already filled in.
• COc1ccc2c(N(C)C3(C)CCOC3C)ncnc2c1F (single isomer, unassigned) [19 Stereoisomer 1] = 7.07
• COc1ccc2c(N(C)C3(C)CCOC3C)ncnc2c1Cl (single isomer, unassigned) [13 Stereoisomer 1] = 6.70
• COc1ccc2c(NC3CCOC3C)ncnc2c1Cl (single isomer, unassigned) [5 stereoisomer 2] = 7.46
• COc1ccc2c(N3CC[C@@H]4OCCC43)ncnc2c1Br (single isomer, unassigned) [10 Stereoisomer 2] = 6.68
• COc1ccc2c(NC3CCOC3C)ncnc2c1Cl (single isomer, unassigned) [5 stereoisomer 4] = 7.44

I. COc1ccc2c(NC3CCOC3)ncnc2c1Cl (single isomer, unassigned) [4 Stereoisomer 2]
II. COc1ccc2c(N(C)C3(C)CCOC3C)ncnc2c1F (single isomer, unassigned) [19 Stereoisomer 3]
Data request: Just tell me: smaller pIC50 value, I or II ? In your reply, give the label of the chosen option.
Data returned: II
(II: 5.92, I: 7.48)

----------
Let's go through some recorded pIC50 values for PDE1A (Homo sapiens, UniProt P54750) together.
pIC50: −log10 of the molar value.
Measured Parameter: pIC50

Check out these entries, answers already filled in.
- COc1ccc2c(NC3(C)CCOC3C)ncnc2c1F (single isomer, unassigned) [17 Stereoisomer 3]: 6.35
- COc1ccc2c(NC3CCOC3)ncnc2c1F (single isomer, unassigned) [16 Stereoisomer 2]: 6.50
- COc1ccc2c(N3CC[C@@H]4OCCC43)ncnc2c1Cl (single isomer, unassigned) [9 Stereoisomer 1]: 6.81
- COc1ccc2c(NC3(C)CCOC3C)ncnc2c1F (single isomer, unassigned) [17 Stereoisomer 1]: 6.74
- COc1ccc2c(N(C)C3(C)CCOC3)ncnc2c1F (single isomer, unassigned) [15 Stereoisomer 1]: 6.16
- COc1ccc2c(NC3(C)CCOC3C)ncnc2c1Cl (single isomer, unassigned) [12 Stereoisomer 3]: 6.84
- COc1ccc2c(N(C)C3CCOC3C)ncnc2c1F (single isomer, unassigned) [18 Stereoisomer 4]: 6.29
- COc1ccc2c(NC3(C)CCOC3C)ncnc2c1F (single isomer, unassigned) [17 Stereoisomer 4]: 6.39
- COc1ccc2c(N(C)C3(C)CCOC3)ncnc2c1Cl (single isomer, unassigned) [11 Stereoisomer 1]: 6.53
- COc1ccc2c(NC3(C)CCOC3)ncnc2c1Cl (single isomer, unassigned) [7 stereoisomer 2]: 6.31

A. COc1ccc2c(NC3(C)CCOC3C)ncnc2c1Cl (single isomer, unassigned) [12 Stereoisomer 1]
B. COc1ccc2c(N(C)C3CCOC3C)ncnc2c1Cl (single isomer, unassigned) [14 Stereoisomer 3]
C. COc1ccc2c(NC3CCOC3C)ncnc2c1Cl (single isomer, unassigned) [5 stereoisomer 4]
D. COc1ccc2c(N(C)C3(C)CCOC3C)ncnc2c1Cl (single isomer, unassigned) [13 Stereoisomer 3]
Data request: Order the records so the highest pIC50 appears first and the lowest last. # the answer lists labels in the order requested
Data returned: D, C, A, B
(D: 7.07, C: 6.35, A: 6.07, B: 5.81)

----------
molecular target: PDE1A (Homo sapiens)
pIC50: −log10 of the molar value.
Measured Parameter: pIC50

Check out these entries, answers already filled in.
* COc1ccc2c(N(C)C3(C)CCOC3)ncnc2c1F (single isomer, unassigned) [15 Stereoisomer 2] | 6.48
* COc1ccc2c(N(C)C3(C)CCOC3C)ncnc2c1Cl (single isomer, unassigned) [13 Stereoisomer 4] | 6.52
* COc1ccc2c(NC3(C)CCOC3)ncnc2c1F (single isomer, unassigned) [1 Stereoisomer 2] | 6.60
* COc1ccc2c(NC3CCOC3C)ncnc2c1F (single isomer, unassigned) [3 Stereoisomer 4] | 6.22

a. COc1ccc2c(NC3CCOC3)ncnc2c1Cl (single isomer, unassigned) [4 Stereoisomer 1]
b. COc1ccc2c(NC3CCOC3C)ncnc2c1Cl (single isomer, unassigned) [5 stereoisomer 3]
c. COc1ccc2c(NC3(C)CCOC3C)ncnc2c1Cl (single isomer, unassigned) [12 Stereoisomer 2]
Data request: Order the records so the highest pIC50 appears first and the lowest last. # the answer lists labels in the order requested
Data returned: c, a, b
(c: 6.54, a: 6.10, b: 5.82)

----------
target: PDE1C (Homo sapiens, UniProt Q14123)
pIC50: −log10 of the molar value.
Measured Parameter: pIC50

Check out these entries, answers already filled in.
- COc1ccc2c(N(C)C3CCOC3C)ncnc2c1Cl (single isomer, unassigned) [14 Stereoisomer 1]: 6.70
- COc1ccc2c(N(C)C3(C)CCOC3)ncnc2c1F (single isomer, unassigned) [15 Stereoisomer 1]: 6.49
- COc1ccc2c(N(C)C3CCOC3)ncnc2c1Cl (single isomer, unassigned) [6 stereoisomer 2]: 7.96

I. COc1ccc2c(N(C)C3CCOC3C)ncnc2c1Cl (single isomer, unassigned) [14 Stereoisomer 3]
II. COc1ccc2c(NC3(C)CCOC3)ncnc2c1Cl (single isomer, unassigned) [7 stereoisomer 1]
Data request: Given the listed records, identify the one among I and II with higher pIC50. In your reply, give the label of the chosen option.
Data returned: II

----------
target: PDE1A (Homo sapiens, UniProt P54750)
Sequence (P54750 whole entry): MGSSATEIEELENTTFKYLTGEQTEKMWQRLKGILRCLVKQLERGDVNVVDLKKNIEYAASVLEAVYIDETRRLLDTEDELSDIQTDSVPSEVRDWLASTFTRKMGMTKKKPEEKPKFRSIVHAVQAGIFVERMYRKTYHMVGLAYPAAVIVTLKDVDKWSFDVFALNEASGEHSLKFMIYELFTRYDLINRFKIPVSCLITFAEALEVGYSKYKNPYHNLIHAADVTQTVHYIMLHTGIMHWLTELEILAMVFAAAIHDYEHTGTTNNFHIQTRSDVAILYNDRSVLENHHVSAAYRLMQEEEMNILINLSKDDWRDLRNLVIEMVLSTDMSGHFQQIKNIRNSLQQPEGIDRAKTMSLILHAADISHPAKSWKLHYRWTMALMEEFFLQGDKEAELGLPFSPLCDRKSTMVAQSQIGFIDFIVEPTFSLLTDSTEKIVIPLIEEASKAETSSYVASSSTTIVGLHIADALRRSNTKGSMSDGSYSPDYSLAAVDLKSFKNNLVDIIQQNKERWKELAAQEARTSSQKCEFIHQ
pIC50: −log10 of the molar value.
Measured Parameter: pIC50

- COc1ccc2c(N(C)C3CCOC3)ncnc2c1Cl (single isomer, unassigned) [6 stereoisomer 2]: 6.82
- COc1ccc2c(N(C)C3CCOC3C)ncnc2c1F (single isomer, unassigned) [18 Stereoisomer 1]: 5.76

a. COc1ccc2c(NC3CCOC3C)ncnc2c1F (single isomer, unassigned) [3 Stereoisomer 1]
b. COc1ccc2c(N(C)C3(C)CCOC3C)ncnc2c1F (single isomer, unassigned) [19 Stereoisomer 4]
Data request: Given the listed records, identify the one among a and b with higher pIC50. In your reply, give the label of the chosen option.
Data returned: b

----------
target: PDE1C (Homo sapiens, UniProt Q14123)
Measured Parameter: IC50 (nM)

Check out these entries, answers already filled in.
• COc1ccc2c(N(C)C3CCOC3C)ncnc2c1F (single isomer, unassigned) [18 Stereoisomer 1] = 1100
• COc1ccc2c(NC3(C)CCOC3)ncnc2c1F (single isomer, unassigned) [1 Stereoisomer 1] = 28
• COc1ccc2c(N(C)C3CCOC3C)ncnc2c1F (single isomer, unassigned) [18 Stereoisomer 2] = 1400
• COc1ccc2c(NC3CCOC3C)ncnc2c1F (single isomer, unassigned) [3 Stereoisomer 4] = 410
• COc1ccc2c(N(C)C3(C)CCOC3C)ncnc2c1Cl (single isomer, unassigned) [13 Stereoisomer 3] = 5
• COc1ccc2c(N(C)C3(C)CCOC3C)ncnc2c1F (single isomer, unassigned) [19 Stereoisomer 2] = 55
• COc1ccc2c(N3CC[C@@H]4OCCC43)ncnc2c1Cl (single isomer, unassigned) [9 Stereoisomer 2] = 550
• COc1ccc2c(NC3CCOC3)ncnc2c1Cl (single isomer, unassigned) [4 Stereoisomer 1] = 200
• COc1ccc2c(N(C)C3CCOC3C)ncnc2c1Cl (single isomer, unassigned) [14 Stereoisomer 2] = 10
• COc1ccc2c(N3CC[C@@H]4OCCC43)ncnc2c1F (single isomer, unassigned) [8 Stereoisomer 1] = 60

I. COc1ccc2c(NC3(C)CCOC3C)ncnc2c1F (single isomer, unassigned) [17 Stereoisomer 3]
II. COc1ccc2c(N(C)C3(C)CCOC3)ncnc2c1Cl (single isomer, unassigned) [11 Stereoisomer 1]
III. COc1ccc2c(NC3CCOC3C)ncnc2c1F (single isomer, unassigned) [3 Stereoisomer 2]
IV. COc1ccc2c(N(C)C3CCOC3C)ncnc2c1F (single isomer, unassigned) [18 Stereoisomer 4]
Data request: # ascending order, key=IC50 # the answer lists labels in the order requested
Data returned: II, IV, III, I
(II: 33 nM, IV: 120 nM, III: 260 nM, I: 390 nM)

----------
Let's go through some recorded IC50 values for PDE1B (Homo sapiens, UniProt Q01064) together.
Measured Parameter: IC50 (nM)

- COc1ccc2c(NC3CCOC3C)ncnc2c1Cl (single isomer, unassigned) [5 stereoisomer 2]: 37
- COc1ccc2c(N(C)C3(C)CCOC3C)ncnc2c1F (single isomer, unassigned) [19 Stereoisomer 1]: 32
- COc1ccc2c(N(C)C3(C)CCOC3C)ncnc2c1Cl (single isomer, unassigned) [13 Stereoisomer 4]: 26

----------
pIC50: −log10 of the molar value.
Let's go through some recorded pIC50 values for PDE1C (Homo sapiens) together.
Measured Parameter: pIC50

Check out these entries, answers already filled in.
* COc1ccc2c(N(C)C3CCOC3C)ncnc2c1F (single isomer, unassigned) [18 Stereoisomer 3] | 7.06
* COc1ccc2c(NC3(C)CCOC3C)ncnc2c1F (single isomer, unassigned) [17 Stereoisomer 4] | 6.36

P. COc1ccc2c(NC3CCOC3C)ncnc2c1F (single isomer, unassigned) [3 Stereoisomer 3]
Q. COc1ccc2c(N(C)C3(C)CCOC3)ncnc2c1F (single isomer, unassigned) [15 Stereoisomer 2]
Data request: Given the listed records, identify the one among P and Q with higher pIC50. In your reply, give the label of the chosen option.
Data returned: Q
(Q: 7.09, P: 6.51)
